- measuredTarget: human delta-like ligand 3 (DLL3) on SHP77 cells (human) (UniProt Q9NYJ7)
- Sequence (Q9NYJ7 27-618, stated change not applied): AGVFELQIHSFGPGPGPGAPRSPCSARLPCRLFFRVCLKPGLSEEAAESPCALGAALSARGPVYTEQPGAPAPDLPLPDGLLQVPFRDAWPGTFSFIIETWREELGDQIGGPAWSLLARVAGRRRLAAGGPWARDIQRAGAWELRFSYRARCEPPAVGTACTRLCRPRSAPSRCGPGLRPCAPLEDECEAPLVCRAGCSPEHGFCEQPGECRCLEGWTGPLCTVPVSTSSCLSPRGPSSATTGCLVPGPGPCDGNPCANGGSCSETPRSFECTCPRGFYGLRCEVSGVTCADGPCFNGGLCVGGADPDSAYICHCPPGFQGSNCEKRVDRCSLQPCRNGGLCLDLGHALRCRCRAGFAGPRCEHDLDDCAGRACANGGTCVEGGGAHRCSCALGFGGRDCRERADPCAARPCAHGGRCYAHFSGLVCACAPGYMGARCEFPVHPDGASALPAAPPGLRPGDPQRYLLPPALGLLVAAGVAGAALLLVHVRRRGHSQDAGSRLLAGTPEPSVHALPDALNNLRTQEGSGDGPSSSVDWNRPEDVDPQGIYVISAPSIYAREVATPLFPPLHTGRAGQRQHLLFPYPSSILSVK
- protocol: FACS on SHP77 cells
recordedEndpoint: MFI at 0.8 nM
Quote the value and follow it with the unit of measurement.

Study these solved cases before continuing.
[
  {
    "binder": "BI3 (antibody, human IgG1, kappa, V domains shown) VH: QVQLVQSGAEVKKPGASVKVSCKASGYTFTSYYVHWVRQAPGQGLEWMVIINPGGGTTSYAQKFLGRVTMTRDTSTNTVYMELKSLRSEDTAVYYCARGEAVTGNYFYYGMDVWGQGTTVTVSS VL: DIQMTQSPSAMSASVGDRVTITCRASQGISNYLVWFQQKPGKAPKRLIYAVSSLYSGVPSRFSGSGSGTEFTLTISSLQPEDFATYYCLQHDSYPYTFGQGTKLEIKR",
    "reportedMeasurement": "252 MFI"
  },
  {
    "binder": "Hab015VL5VH6a-hFc (scFv, part only; not given: scFv linker and human IgG1 Fc, V domains shown, not shown: another chain or arm of the molecule; a dimerising Fc or GST; small tags and cut ends) VL: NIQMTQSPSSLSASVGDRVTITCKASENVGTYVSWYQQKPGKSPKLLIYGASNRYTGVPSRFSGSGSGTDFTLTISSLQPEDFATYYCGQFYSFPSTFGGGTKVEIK VH: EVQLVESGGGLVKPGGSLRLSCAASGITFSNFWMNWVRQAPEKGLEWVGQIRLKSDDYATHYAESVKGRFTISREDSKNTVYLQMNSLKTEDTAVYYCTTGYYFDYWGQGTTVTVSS",
    "reportedMeasurement": "663 MFI"
  }
]

Let's switch to this binder now.
For the binder Hab006VL4VH1-hFc (scFv, part only; not given: scFv linker and human IgG1 Fc, V domains shown, not shown: another chain or arm of the molecule; a dimerising Fc or GST; small tags and cut ends) VL: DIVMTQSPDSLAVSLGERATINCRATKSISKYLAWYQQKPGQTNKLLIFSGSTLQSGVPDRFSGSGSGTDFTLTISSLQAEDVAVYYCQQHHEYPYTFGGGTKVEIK VH: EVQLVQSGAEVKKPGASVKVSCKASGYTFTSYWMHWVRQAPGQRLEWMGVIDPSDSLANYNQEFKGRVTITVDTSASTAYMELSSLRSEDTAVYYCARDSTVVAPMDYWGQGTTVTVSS , report MFI at 0.8 nM. 1410 MFI
